// provenance: PubChem BioAssay

Assay Name: viability loss in pontine glioma line – cell-based, SU-DIPG-XXV, MIPE5.0, CellTiter-Glo, qHTS, dose response (AID 1347065);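 further: cells exposed to compound for 48 hours before ATP readout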
Condition Details: CellTiter-Glo ATP luminescence
Records with an inconclusive call do not appear. Calls of active or inactive are those of the source. Cut-off not given; nearly all actives show AC50 up to about 26 µM.
Reply using exactly one outcome from active, inactive

Query: recorded result category for CC[C@H]1/C=C\C=C/C[C@@H](C)[C@H](O)[C@@](C)(O)C(=O)[C@@H](C)[C@H](O)[C@@H](C)C(=O)[C@@H](C)[C@H](O)[C@@H](C)/C=C/C(=O)O[C@@H]2[C@H](C)[C@H](CC1)O[C@]1(CC[C@H](C)[C@H](C[C@@H](C)O)O1)[C@H]2C in this test
Result: active

Query: GET /call?item= CC(C)c1cccc(C(C)C)c1O returns the recorded outcome of this test.
Result: inactive

Query: Test call, this molecule: CN(C)c1cc2c(cc1Sc1nc3c(N)nccc3n1CCNCC(C)(C)C)OCO2
Result: active

Query: Any idea what this test logged for CCc1c(C(=O)C(N)=O)c2c(OCC(=O)O)cccc2n1Cc1ccccc1 ?
Result: inactive

----------
Assay Name: sensitizers of A549 cells to miR-34 induction, primary screen, imaging, A549 dox-inducible miR-34, nuclei and caspase counts (AID 1347080)
Condition Details: A549 miR-34 inducible, Hoechst nuclei count, 48 h; cell number ratio, induced over uninduced
The source made the active and inactive calls.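 The calls were made as follows: active = compounds whose cell count with miR-34 switched on is under 0.7 times the count with it off; inactive = the rest.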
Could you please pick one outcome from this set? active, inactive

Query: Call for entry CCN1C[C@]2(C)CC[C@H](O)[C@]34C1[C@H](C[C@H]23)[C@@]1(O)C[C@H](OC)[C@H]2C[C@@H]4[C@@H]1C2O (some centres not stated) :
Result: inactive

Query: I'd appreciate the recorded outcome for O=[N+]([O-])C=Cc1ccc2c(c1)OCO2 from this test.
Result: inactive

Query: # outcome recorded in this test, key = COc1ccc(N(C(=O)Oc2c(C)cccc2C)c2ccnc(Nc3ccc(N4CCN(C)CC4)cc3)n2)c(OC)c1
Result: inactive

Query: Hi, do you know how O=c1ccc2[nH]cc(C3=CCNCC3)c2[nH]1 came out in this test?
Result: inactive

Query: Record request — test call for CCCCCCCC/C=C\CCCCCCCC(=O)Nc1ccccc1
Result: inactive

Query: Please share the test call associated with CC1=C(O)C(=O)[C@@H]2O[C@@H]2C1=O .
Result: inactive

Query: Hey, what did the test say about CCCCCCCCCCCCCC(=O)O[C@@H]1[C@@H](C)[C@@]2(O)[C@@H](C=C(CO)C[C@@]3(O)C(=O)C(C)=C[C@@H]23)C2C(C)(C)[C@@]21OC(C)=O (some centres not stated) ?
Result: active

----------
Assay Name: HDN33 neuroblastoma growth inhibition, cell-based, chromothripsis tumors, cisplatin or BGB combos (AID 1671450);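 further: cells exposed to compound for four days; 0% = vehicle DMSO and 100% = cell killing by high DMSO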
Condition Details: HDN33 neuroblastoma cells, measured here: with cisplatin IC20 combination, at 0.5 µM, stronger effect = higher value
I'd appreciate it if you could supply inhibition values for the items below.
The answer is to be given in %; state only the numeric part.

Query: Please indicate inhibition recorded for O=P(O)(NCCCl)NCCCl
Result: -30.2

Query: Query inhibition for Cn1c(COP(=O)(NCCBr)NCCBr)cnc1[N+](=O)[O-]
Result: -10.2

Query: Look up and report measured inhibition for this entry: COc1cc(C2c3cc4c(cc3C(O)C3COC(=O)C23)OCO4)cc(OC)c1OC (stereo unspecified)
Result: 66.6

Query: Check the records and state inhibition for CN(C)NC(=O)CCC(=O)O
Result: -10.8

Query: Provide only the value of recorded inhibition for O=C(O)CCCc1ccc(N(CCCl)CCCl)cc1
Result: 15.9

Query: // Input: Cc1c2ccncc2c(C)c2c1[nH]c1ccccc12 . Output its inhibition only.
Result: 19.1

----------
Tested on: Aerobactin synthetase IucA (Klebsiella pneumoniae, hypervirulent)
Assay Name: IucA enzyme inhibition, biochemical, LOPAC library, absorbance readout (AID 1346212);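 further: 100% = no compound wells and 0% = no enzyme wells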
Condition Details: IucA enzyme assay, absorbance (OD) readout; stronger effect = lower value; concentration not given here
Parameter Measured: remaining activity (%)
Give the quantity in %, number only.

Query: Read the entry O=C(N[C@@H](Cc1ccccc1)C(=O)CCl)OCc1ccccc1 and write its reported remaining activity.
Result: 111

Query: Give remaining activity for the following molecule: OC[C@H]1NC[C@@H](O)[C@@H]1O
Result: 102

Query: Please give measured remaining activity of the following entry: Clc1ccccc1C(c1ccccc1)(c1ccccc1)n1ccnc1
Result: 117

Query: Using known records, supply remaining activity for Nc1nc(Cl)nc2c1ncn2[C@@H]1O[C@H](COP(=O)(O)OP(=O)(O)OP(=O)(O)O)[C@H](O)C1O (stereo partly drawn)
Result: 104

Query: Check the records and state remaining activity for CN(C)CCCN1c2ccccc2CCc2ccc(Cl)cc21
Result: 117

Query: Answer with the recorded remaining activity of NC(=O)C1=CN(C2OC(COP(=O)(O)OP(=O)(O)OC[C@H]3O[C@@H](n4cnc5c(N)ncnc54)C(OP(=O)(O)O)[C@H]3O)C(O)C2O)C=CC1 (stereo partly drawn) only.
Result: 112

Query: Report remaining activity for CC(=O)OCC1=C(C(=O)[O-])N2C(=O)[C@@H](NC(=O)CCC[C@@H](N)C(=O)[O-])[C@H]2SC1.[Zn+2]
Result: 102

Query: Give the reported value of remaining activity for this record: CCCCCCCCCC[Si](C)(C)CCC(=O)NC(Cc1ccc(C)cc1)c1ccccc1 (stereo not drawn)
Result: 116

Query: Note down remaining activity recorded for O=Nc1ccc2oc(=O)ccc2c1
Result: 103

Query: Fill in remaining activity for record N#CC(C#N)=Cc1cc(O)c(O)c(O)c1
Result: 109

Query: Report remaining activity, nothing else, for this molecule: NC(=O)c1cccc(N)c1
Result: 113

Query: Output measured remaining activity for this item: C[C@H](Cc1ccc(O)c(O)c1)[C@@H](C)Cc1ccc(O)c(O)c1
Result: 117

Query: Give recorded remaining activity. Nc1nc(N)c2nc(-c3ccccc3)c(N)nc2n1
Result: 93.9

Query: Annotate the molecule CCCN1CCO[C@@H]2c3cc(O)ccc3OC[C@H]21 with its measured remaining activity.
Result: 102

Query: Give reported remaining activity value for CC(O)C(O)[C@H]1CNc2nc(N)[nH]c(=O)c2N1 (stereo partly drawn)
Result: 102

Query: Please give the documented remaining activity of NCCc1c[nH]c2ccc(O)cc12
Result: 107

Query: Read off the recorded remaining activity for CN(C)CCC(c1ccccc1)c1ccccn1 (stereo not drawn)
Result: 89.8

Query: Read the entry COc1ccccc1N1CCN(CCCNc2c(C)c(=O)n(C)c(=O)n2C)CC1 and write its reported remaining activity.
Result: 96.4

Query: Respond only with remaining activity recorded for Cc1ccc(S(=O)(=O)/C=C/C#N)cc1
Result: 100

Query: Give me measured remaining activity, please, for this molecule: C[C@@H]1O[C@@H](O[C@H]2C[C@@H](O)[C@]3(CO)[C@H]4[C@H](O)C[C@]5(C)[C@@H](C6COC(=O)C6)CC[C@]5(O)[C@@H]4CC[C@]3(O)C2)[C@H](O)[C@H](O)[C@H]1O (stereo partly drawn)
Result: 97.8

Query: Fill in reported remaining activity for this entry: Clc1cnc(Oc2ccc(Oc3ncc(Cl)cc3Cl)cc2)c(Cl)c1
Result: 94.8

Query: Tell me remaining activity reported for CC(C)Cn1cnc2c(N)nc3ccccc3c21
Result: 102

Query: Fill in reported remaining activity for this entry: Fc1cccc(/C=N/N=C/c2cccc(F)c2)c1
Result: 123

----------
Assay Name: liver-stage malaria parasite growth inhibition, primary screen, cell-based, HepG2, luciferase luminescence, HepG2 viability (AID 624349);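 further: 100% = mean of DMSO negative control wells on the same plate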
Condition Details: P. berghei liver stage in HepG2, luciferase luminescence, concentration not given here; stronger effect = lower value
Parameter Measured: parasite load remaining (%)
Please respond with the number in % and leave the unit unwritten.

Query: Identify measured parasite load remaining corresponding to CC(C)=CC1C(C(=O)OCc2cccc(Oc3ccccc3)c2)C1(C)C (stereo not given)
Result: 123

Query: Quickly give me recorded parasite load remaining for C[C@]12CCC(=O)C[C@@H]1CC[C@@H]1[C@@H]2CC[C@@]2(C)[C@H]1CC[C@]2(C)O
Result: 79.1

Query: Identify parasite load remaining associated with the molecule C#C[C@]1(O)CCC2C3CCC4=CC(=O)CC[C@]4(C)C3CC[C@@]21C (stereo not given in full)
Result: 97.8

Query: Recall and state the measured parasite load remaining for C[C@@H]1O[C@@H](O[C@@H]2C=C3CCC4C(CC[C@]5(C)[C@@H](c6ccc(=O)oc6)CC[C@]45O)[C@@]3(C)CC2)[C@H](O)[C@H](O)[C@H]1O (stereo not given in full) .
Result: 0.58

Query: Consider the molecule CN1C2CCC1CC(O)C2 (stereo not given) . State its measured parasite load remaining.
Result: 64
